System: cultured nerve cells
Experiment: Action of protecting cultured nerve cells from glutamic acid toxicity (LDH leakage)
Type: cell-based, Wistar rat
Details: rat fetal cerebral cortex cells, 10 mM glutamic acid, 24 hours, read-out: ED50 (the source's name)
pEC50 values for the compounds below.
Note on pEC50: it is the negative log10 of concentration, concentration in mol/L.

// solved cases for pEC50 follow
Oc1ccc2c3c1O[C@H]1c4c(c5cc6c7c(cccc7c5n4Cc4ccccc4)CC6)C[C@@]4(O)[C@@H](C2)N(CC2CC2)CC[C@]314
7.14
O=C(NCCCn1c2c(c3ccccc31)C[C@@]1(O)[C@H]3Cc4ccc(O)c5c4[C@@]1(CCN3CC1CC1)[C@H]2O5)c1ccccc1
6.85
NCCCn1c2c(c3ccccc31)C[C@@]1(O)[C@H]3Cc4ccc(O)c5c4[C@@]1(CCN3CC1CC1)[C@H]2O5
6.10

Determine its reported pEC50: NCCCn1c2c(c3ccc4ccccc4c31)C[C@@]1(O)[C@H]3Cc4ccc(O)c5c4[C@@]1(CCN3CC1CC1)[C@H]2O5
6.52

For Oc1ccc2c3c1O[C@H]1c4c(c5cc6c7c(cccc7c5n4Cc4ccccc4)-c4ccccc4-6)C[C@@]4(O)[C@@H](C2)N(CC2CC2)CC[C@]314 , write its pEC50.
6.72
